target: OR1G1 (Homo sapiens) (UniProt P47890); conditions: stereoisomer not certain
Sequence (P47890 whole entry): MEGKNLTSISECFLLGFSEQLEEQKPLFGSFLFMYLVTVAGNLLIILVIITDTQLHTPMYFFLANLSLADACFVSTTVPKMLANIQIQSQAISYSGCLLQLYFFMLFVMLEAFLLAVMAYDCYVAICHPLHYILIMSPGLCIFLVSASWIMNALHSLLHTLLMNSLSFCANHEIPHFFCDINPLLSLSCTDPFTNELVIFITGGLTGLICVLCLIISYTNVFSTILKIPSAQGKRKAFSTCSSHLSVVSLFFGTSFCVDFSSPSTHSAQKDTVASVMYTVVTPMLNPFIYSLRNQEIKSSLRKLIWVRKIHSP
Choose one outcome from this list and give only that: YES for active, NO for inactive

(Q) Check the results log: what was the call for CC(C)(C)C1CCCCC1OCCCCO (configuration not stated) ?
(A) NO

(Q) For C=CCOC(=O)COCCC(C)C , which call appears in the assay record?
(A) NO

* * *

Molecular target: UniProt L7MU75
Sequence (whole entry): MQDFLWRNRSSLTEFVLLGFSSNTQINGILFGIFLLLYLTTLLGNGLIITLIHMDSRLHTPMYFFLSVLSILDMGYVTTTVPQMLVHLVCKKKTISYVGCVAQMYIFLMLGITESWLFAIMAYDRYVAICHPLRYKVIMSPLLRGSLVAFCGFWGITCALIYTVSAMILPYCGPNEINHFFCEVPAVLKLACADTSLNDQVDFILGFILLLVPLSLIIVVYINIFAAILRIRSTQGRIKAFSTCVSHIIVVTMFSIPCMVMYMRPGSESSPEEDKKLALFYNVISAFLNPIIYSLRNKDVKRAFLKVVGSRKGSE
Conditions: stereoisomer not certain
A correct response names exactly one class from 1.0 = active, 0.0 = inactive

[
  {
    "Molecule": "CC1CCC(C(C)C)C(=O)C1 (configuration not stated)",
    "Qualitative label": 0.0
  }
]

(Q) Record request — test call for CCCCCCCCCS
(A) 0.0

(Q) Test call, this molecule: CC(C)=CC1CC(C)CCO1 (configuration not stated)
(A) 0.0

(Q) Give the logged outcome of this assay for the following molecule: CCC(C)O (configuration not stated)
(A) 0.0

(Q) Each molecule tested received a call. Report the one for CCCCCCCO .
(A) 0.0

(Q) Would you mind telling me which call this test gave O=c1ccc2ccccc2o1 ?
(A) 1.0

* * *

biological target: UniProt Q8VG27; conditions: stereoisomer not certain
Sequence (Q8VG27 as listed by the source): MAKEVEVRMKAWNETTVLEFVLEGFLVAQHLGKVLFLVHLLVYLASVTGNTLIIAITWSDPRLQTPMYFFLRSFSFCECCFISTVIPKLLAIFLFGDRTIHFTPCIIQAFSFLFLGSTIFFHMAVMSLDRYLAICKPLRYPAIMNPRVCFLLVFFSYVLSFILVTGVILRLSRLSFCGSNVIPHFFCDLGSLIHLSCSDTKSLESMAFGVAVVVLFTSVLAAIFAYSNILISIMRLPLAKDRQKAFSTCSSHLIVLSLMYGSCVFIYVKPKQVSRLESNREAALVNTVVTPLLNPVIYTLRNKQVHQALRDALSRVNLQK
Please state which outcome applies, choosing from active, inactive

Study these solved cases before continuing.
[
  {
    "Chemical smiles": "CCCCCCOC(C)=O",
    "System": "UniProt Q8VG27",
    "Qualitative label": "inactive"
  },
  {
    "Chemical smiles": "CC(=O)OCC=C(C)C",
    "System": "UniProt Q8VG27",
    "Qualitative label": "inactive"
  },
  {
    "Chemical smiles": "C=CC(=O)CCCCC",
    "System": "UniProt Q8VG27",
    "Qualitative label": "inactive"
  }
]

(Q) Hi, sorry to bother you, what did the test record for CCOC(=O)CC(C)C ?
(A) inactive

(Q) In this assay, the call recorded for CCCCCCCCCCOC(C)=O was what?
(A) active

(Q) What call does the record list for COc1cc(C(=O)O)ccc1O ?
(A) active

(Q) Entry C1CCOC1 : call = ?
(A) inactive

(Q) Which outcome did this test record for the molecule c1ccc2ncccc2c1 ?
(A) inactive

(Q) Tell me the recorded outcome of this test for CCN(CC)CC .
(A) inactive

* * *

biological target: UniProt A2ATE5; details: stereoisomer not certain
Sequence (A2ATE5 as listed by the source): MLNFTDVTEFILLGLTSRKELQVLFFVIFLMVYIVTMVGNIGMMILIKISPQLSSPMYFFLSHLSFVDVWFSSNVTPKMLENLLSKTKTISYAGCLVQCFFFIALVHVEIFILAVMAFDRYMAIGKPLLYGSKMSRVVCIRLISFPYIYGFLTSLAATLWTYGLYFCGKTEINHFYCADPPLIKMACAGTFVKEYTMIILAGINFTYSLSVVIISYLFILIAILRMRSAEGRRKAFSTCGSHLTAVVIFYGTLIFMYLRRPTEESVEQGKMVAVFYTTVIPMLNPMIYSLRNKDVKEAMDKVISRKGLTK
Would you mind answering with one of these outcomes? 1 for active, 0 for inactive

Please review the entries below; each comes with its answer.
[
  {
    "Compound": "CCCCCCCCCCCO",
    "System": "UniProt A2ATE5",
    "Qualitative label": 0
  },
  {
    "Compound": "CCCC(=O)C(C)=O",
    "System": "UniProt A2ATE5",
    "Qualitative label": 0
  },
  {
    "Compound": "C=C(C)C1CCC2(C)OC2C1 (stereo unspecified)",
    "System": "UniProt A2ATE5",
    "Qualitative label": 0
  },
  {
    "Compound": "CCc1ncc(C)nc1CC",
    "System": "UniProt A2ATE5",
    "Qualitative label": 0
  }
]

(Q) Recorded test outcome, item CCCCC(=O)CC
(A) 0

(Q) Tell me the assay call for Cc1ccc(C(C)C)cc1 please.
(A) 0
